- Test system: Plasmodium falciparum
- experiment description: GSK_TCMDC: Inhibition of Plasmodium falciparum Dd2 in whole red blood cells, using parasite LDH activity as an index of growth. Test compounds present at 2uM
- Type: functional
parameter measured: Inhibition (%)
Number only, in %; omit the unit.

Study these solved cases before continuing.
CCC(C)(C)c1ccc2nc(N)nc(N)c2c1C: 82
O=C(Nc1cccc(-c2ccc(-c3nc4cc(F)ccc4[nH]3)cc2)c1)c1ccoc1: 6
CC(C)Cc1cn(-c2nc(C(=N)N)cs2)c2cc(Cl)ccc12: 98
CC(C)NCc1ccc(-c2cccc(-c3nc4ccccc4[nH]3)c2)cc1.O=C(O)C(F)(F)F: 34

Prompt: Suppose we examine the compound O=S(=O)(Nc1cccc(F)c1CNCc1ccccn1)c1ccc(Cl)c(Cl)c1 ; what Inhibition value has been reported?
Completion: 34

Prompt: Ok, now CCOC(=O)C1=C(C)NC(C)=C(C(=O)OCC)C1(C(=O)OCc1ccccc1)c1cccc(C(F)(F)F)c1
Completion: 60

Prompt: Ok, now CN(C)c1ccc(C2(c3ccccc3)N=C(N)N(CCCc3ccccc3)C2=O)cc1.O=C(O)C(F)(F)F (centres undefined)
Completion: 97

Prompt: Ok, now Nc1cccc(CNCc2ccc(-c3ccc(-c4nc5cc(C(F)(F)F)ccc5[nH]4)s3)cc2)c1.O=C(O)C(F)(F)F
Completion: 98

Prompt: Ok, now Cc1[nH]c2c(NCc3ccc(F)cc3)nccc2c1C
Completion: 0

* * *

Entries annotated with measured Inhibition
- Tested on: Plasmodium falciparum
- experiment description: GSK_TCMDC: Inhibition of Plasmodium falciparum 3D7 in whole red blood cells, using parasite LDH activity as an index of growth. Test compounds present at 2uM
- Type: functional
Number only, in %; omit the unit.

Study these solved cases before continuing.
Cc1cccc(NC(=S)NC2CCN(CCCCCNC(=O)/C=C/c3ccc(Cl)c(Cl)c3)CC2)c1: 97
COc1ccc2nc(C)cc(Nc3ccc(N4CCN(C)CC4)cc3)c2c1: 100
Cc1cc(N)c2cc(NC(=O)c3cc(C(F)(F)F)cc(C(F)(F)F)c3)ccc2n1.Cl: 100

Prompt: Suppose we examine the molecule CCC1(C)CC(CCNCc2ccccc2O)(c2ccccc2OC)CCO1.Cl (centres undefined) ; what Inhibition value has been reported?
Completion: 94

Prompt: Ok, now COc1ccc(NC(=O)c2cccc(Br)c2)cc1N1CCN(CCCCCCCN2CCN(c3cc(NC(=O)c4cccc(Br)c4)ccc3OC)CC2)CC1.Cl
Completion: 99

Prompt: Ok, now CCc1ccc(NC(=O)N(CCCn2ccnc2)Cc2csc(-c3ccc(CNCc4ccccc4)cc3)n2)cc1.O=C(O)C(F)(F)F
Completion: 100

Prompt: Ok, now COc1ccc(-c2ccc(NC(=O)c3cccc(C#N)c3)cc2)cc1CN(C)C.O=C(O)C(F)(F)F
Completion: 100

Prompt: Ok, now Cc1cc(C)cc(NC(=S)NCCCCN2CCN(c3cccc(Cl)c3)CC2)c1
Completion: 88

* * *

Entries annotated with measured Inhibition
- Tested on: Plasmodium falciparum
- experiment description: GSK_TCMDC: Inhibition of Plasmodium falciparum 3D7 in whole red blood cells, using parasite LDH activity as an index of growth. Test compounds present at 2uM
- Type: functional
Numeric answer plus unit only.

Study these solved cases before continuing.
CCOC(=O)C1=C(C)N=c2sc(=Cc3cc(Cl)ccc3O)c(=O)n2C1c1ccc2c(c1)OCO2 (centres undefined): 96%
COc1cccc2cc(C(=O)N[C@@H](CC(C)C)C(=O)NC(/C=N/NC(=O)c3ccccc3)CCc3ccccc3)oc12 (some centres undefined): 88%
NC(=O)c1cccc(CNCc2ccc(-c3cccc(-c4nc5ccccc5[nH]4)c3)cc2)c1.O=C(O)C(F)(F)F: 100%

Note: attention shifts to another entry.
Prompt: Suppose we examine the compound CCOC(=O)C1=C(C)NC2=C(C(=O)CCC2)C1c1cn(Cc2ccc(Cl)cc2Cl)nc1-c1ccccc1 (centres undefined) ; what Inhibition value has been reported?
Completion: 100%

* * *

Entries annotated with measured Inhibition
- System: Plasmodium falciparum
- experiment description: GSK_TCMDC: Inhibition of Plasmodium falciparum 3D7 in whole red blood cells, using parasite LDH activity as an index of growth. Test compounds present at 2uM
- Assay type: functional
Number only, in %; omit the unit.

Prompt: Suppose we examine the compound CNCCNCc1cccc(-c2ccc(-c3nc4cccc(C)c4[nH]3)s2)c1.O=C(O)C(F)(F)F ; what Inhibition value has been reported?
Completion: 92

* * *

- System: Plasmodium falciparum
- experiment description: GSK_TCMDC: Inhibition of Plasmodium falciparum 3D7 in whole red blood cells, using parasite LDH activity as an index of growth. Test compounds present at 2uM
- Assay type: functional
Entries annotated with measured Inhibition
Number only, in %; omit the unit.

Study these solved cases before continuing.
O=C(Nc1ccc(CN2CCOCC2)cc1)c1ccc(-c2ccc(Br)cc2)o1: 92
Br.Oc1ccccc1CCNCC1CCc2ccccc2C1 (stereo not given): 98
Cc1cccc2nc(-c3ccc(-c4ccc(C(=O)NCCN5CCCC5)cc4)s3)[nH]c12: 100
CCOc1cc(C)ccc1C1CCN(CCCCNC(=O)c2cnc(-c3ccc(C(F)(F)F)cc3)[nH]2)CC1: 95
Cc1cc2ncn(-c3nccc(NCc4ccc(F)cc4)n3)c2cc1C.O=C(O)C(F)(F)F: 98

Prompt: Lab note: need Inhibition with Plasmodium falciparum for entry Cc1noc(C)c1-c1cccc(CNCc2cccc(-c3ccc(-c4nc5ccccc5[nH]4)cc3)c2)c1.O=C(O)C(F)(F)F , please look it up.
Completion: 100

Prompt: Ok, now Cc1cc2ccc(-c3cccc(CN)c3)cc2nc1N.Cl
Completion: 100

Prompt: Ok, now COC(=O)c1ccc(C(=O)NCCCCN2CCC(c3ccc4c(c3OC)CCCC4)CC2)cc1-c1ccc(C(F)(F)F)cc1
Completion: 93

Prompt: Ok, now CCc1nc2nc(C)cc(Nc3cc(C)cc(C)c3)n2n1
Completion: 96

Prompt: Ok, now CCOc1cc(C(=O)NC2CCN(Cc3ccccc3)CC2)ccc1-c1nc2cc(Cl)ccc2[nH]1
Completion: 100

* * *

- Test system: Plasmodium falciparum
- experiment description: GSK_TCMDC: Inhibition of Plasmodium falciparum Dd2 in whole red blood cells, using parasite LDH activity as an index of growth. Test compounds present at 2uM
- Format: functional
Rule: Inhibition below 80% gives Fulfilled, anything at or above gives Not fulfilled.

Some solved cases for reference:
O=C(O)C(F)(F)F.O=C1OC2(CN1CC1CCN(Cc3ccc(-n4ccnc4)cc3)C1)c1ccccc1-c1ccccc12 (configuration not stated): Fulfilled
Cc1cc(-c2cccc(CNCCc3ccc(Cl)cc3)c2)cnc1N.Cl: Fulfilled

Next item in the queue.
Prompt: A record lists CCCn1cc2c(ccc3nc(N)nc(N)c32)n1 . Is its Inhibition below 80%?
Completion: Fulfilled

* * *

- System: Plasmodium falciparum
- experiment description: GSK_TCMDC: Inhibition of Plasmodium falciparum 3D7 in whole red blood cells, using parasite LDH activity as an index of growth. Test compounds present at 2uM
- Assay type: functional
parameter measured: Inhibition (%)
Number only, in %; omit the unit.

Prompt: Suppose we examine the molecule CCN(CC)CCOc1cc2c(cc1Br)-c1cc(Br)c(OCCN(CC)CC)cc1C2=NO.Cl ; what Inhibition value has been reported?
Completion: 100

Prompt: Ok, now COc1ccc2c(CCNc3nc(SC)ncc3C(=O)NCCc3ccc(F)cc3)c[nH]c2c1.O=C(O)C(F)(F)F
Completion: 91

Prompt: Ok, now COc1ccc2ncc(F)c(NC(=O)C3CCC(NCc4cc5c(F)cccc5[nH]4)CC3)c2n1.Cl (centres undefined)
Completion: 91

Prompt: Ok, now O=C(NNC(=O)c1ccc(CCN2CCC(c3nc(COCC(F)(F)F)c(-c4ccc(F)cc4)o3)CC2)cc1)Nc1ccc(Oc2ccccc2)cc1
Completion: 100

* * *

- System: HepG2
- experiment description: GSK_TCMDC: Percent inhibition of human HepG2 cell line. Test compounds present at 10uM.
- Assay type: functional
Entries annotated with measured Inhibition
Numeric answer plus unit only.

Cc1cc2[nH]c(-c3ccc(C(=O)NCCCN4CCN(c5cccc(Cl)c5)CC4)cc3F)nc2cc1Cl: 0%

Prompt: Suppose we examine the compound COc1cccc(C(=O)NC(C=Cc2ccccc2)c2cc(Cl)c3cccnc3c2O)c1 (stereo unspecified) ; what Inhibition value has been reported?
Completion: 27%

Prompt: Ok, now COC(=O)c1ccc(OCC(C)NCC(O)c2cccc(C(F)(F)F)c2)cc1.O=C(O)/C=C/C(=O)O (stereo unspecified)
Completion: 6%

Prompt: Ok, now CCCN(CC)CCOC(=O)c1ccccc1
Completion: 2%

Prompt: Ok, now CCc1cn(C)c2c(N3CCCC3=O)cc(C(=O)N[C@@H](Cc3ccccc3)[C@H](O)CNCc3cccc(OC)c3)cc12
Completion: 7%

Prompt: Ok, now CC1CN(c2ccc3occ(C(=O)Nc4ccc(-c5ccncc5)c(Cl)c4)c3c2)CC(C)N1C.Cl (stereo unspecified)
Completion: 14%

Prompt: Ok, now CC(C)Cc1csc(NC(=O)C=Cc2ccco2)c1C(=O)O
Completion: 4%

Recorded values, source ChEMBL document CHEMBL1157539.
